Data origin: patent US8124807B2

molecular target: human LCE (Homo sapiens, UniProt Q9H5J4); assay: LCE enzyme activity-inhibitory test; format: biochemical; conditions: palmitoyl CoA and [14C]-malonyl CoA substrates, pH 6.5, 37° C., 90 minutes
Sequence (Q9H5J4 whole entry): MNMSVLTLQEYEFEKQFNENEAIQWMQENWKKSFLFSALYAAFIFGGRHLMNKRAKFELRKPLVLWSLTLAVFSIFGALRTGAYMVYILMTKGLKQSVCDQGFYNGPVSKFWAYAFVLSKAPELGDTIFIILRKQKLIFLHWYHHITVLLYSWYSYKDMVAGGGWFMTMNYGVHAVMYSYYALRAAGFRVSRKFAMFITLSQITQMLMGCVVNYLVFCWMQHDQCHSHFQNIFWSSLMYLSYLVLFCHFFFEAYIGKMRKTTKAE
Value type: IC50 (nM)

Known IC50 results, listed for orientation:
>  <Compound>
CC(C)Oc1ccc(NC(=O)[C@@H]2CCC[C@@H](S(=O)(=O)c3ncccn3)C2)nc1 (racemic)

>  <IC50 [nM]>
26

$$$$
>  <Compound>
CC(C)Oc1ccc(NC(=O)[C@@H]2CCC[C@@H](S(=O)(=O)c3nccs3)C2)nc1 (racemic)

>  <IC50 [nM]>
32

$$$$

A = CC(C)Oc1ccc(NC(=O)[C@@H]2CCC[C@@H](S(=O)(=O)c3ccccn3)C2)nc1 (racemic)
B = CC(C)Oc1ccc(NC(=O)[C@@H]2CCC[C@@H](S(=O)(=O)c3cnccn3)C2)nc1 (racemic)
Problem: Just curious, which one has the larger IC50 reading, A or B ? # respond with the chosen item's label
Solution: B
(B: 130 nM, A: 43 nM)
